Measured pKi by item
# system-name: Kappa-type opioid receptor (Homo sapiens, UniProt P41145)
# Sequence (P41145 whole entry): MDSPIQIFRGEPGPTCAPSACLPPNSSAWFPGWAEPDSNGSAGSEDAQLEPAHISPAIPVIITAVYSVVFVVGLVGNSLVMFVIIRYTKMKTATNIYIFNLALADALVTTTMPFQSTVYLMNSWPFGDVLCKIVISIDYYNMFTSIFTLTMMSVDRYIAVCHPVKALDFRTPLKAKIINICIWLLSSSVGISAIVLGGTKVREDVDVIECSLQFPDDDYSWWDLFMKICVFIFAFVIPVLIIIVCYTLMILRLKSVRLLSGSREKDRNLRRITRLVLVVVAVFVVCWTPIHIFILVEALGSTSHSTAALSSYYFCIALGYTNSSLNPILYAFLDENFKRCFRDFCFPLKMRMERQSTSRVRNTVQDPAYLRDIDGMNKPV
The read-out pKi is expressed as -log10 of concentration in moles per litre.

Give the reported pKi for C[C@H]1[C@H]2Cc3ccc(O)cc3[C@]1(C)CCN2CCC(=O)Nc1ccc2ncccc2c1 (system: Kappa-type opioid receptor (Homo sapiens, UniProt P41145)). 5.36

Give the reported pKi for C[C@H]1[C@H]2Cc3ccc(O)cc3[C@]1(C)CCN2CCC(=O)Nc1cccc2cccnc12 (system: Kappa-type opioid receptor (Homo sapiens, UniProt P41145)). 6.64

Give the reported pKi for C[C@H]1[C@H]2Cc3ccc(O)cc3[C@]1(C)CCN2CCC(=O)Nc1cccc2ncccc12 (system: Kappa-type opioid receptor (Homo sapiens, UniProt P41145)). 5.81

Give the reported pKi for C[C@H]1[C@H]2Cc3ccc(O)cc3[C@]1(C)CCN2CCC(=O)Nc1cccc2ccccc12 (system: Kappa-type opioid receptor (Homo sapiens, UniProt P41145)). 6.10

Give the reported pKi for C[C@H]1[C@H]2Cc3ccc(O)cc3[C@]1(C)CCN2CCC(=O)Nc1cnc2ccccc2c1 (system: Kappa-type opioid receptor (Homo sapiens, UniProt P41145)). 5.19

Further cases:
Give the reported pKi for C[C@H]1[C@H]2Cc3ccc(O)cc3[C@]1(C)CCN2CCC(=O)Nc1cccc2cnccc12 (system: Kappa-type opioid receptor (Homo sapiens, UniProt P41145)). 5.54
